protocol.text: in vivo
Set-up: species or system mice
measurement.parameters: mouse, in vivo, po, 50 mg/kg
measured.metric: Cmax (ng/mL)
Write the number in ng/mL without appending the unit.

// Cmax lookup, compound = Cl.FC(F)(F)Oc1ccc(Oc2ccc(CN3CCC4(CC3)OCCc3sccc34)cc2)cc1 , result: 1300

* * *

protocol.text: in vivo
Parameters: species or system mice
measurement.parameters: mouse, in vivo; mice, oral 50 mg/kg, whole blood; read-out: %F
measured.metric: bioavailability (%)
I only need the number, in %, no unit after it.

Noted for CCc1ccc([C@H]2C[C@@H](C(F)(F)F)n3ncc(C(=O)NCc4ccc5c(c4)OCO5)c3N2)cc1 : its bioavailability reads 96.1

* * *

protocol.text: in vivo
Design: species or system mice
measurement.parameters: mouse, in vivo, po, 50 mg/kg
measured.metric: Tmax (min)
Respond numerically; units are min and should not be typed.

Form: molecule = Cl.FC(F)(F)Oc1ccc(Oc2ccc(CN3CCC4(CC3)OCCc3sccc34)cc2)cc1 ; Tmax = 42

* * *

protocol.text: in vivo
Design: species or system mice
measurement.parameters: mouse, in vivo, po, 50 mg/kg
measured.metric: bioavailability
Kindly write the number and append the unit.

Lookup result for Cl.FC(F)(F)Oc1ccc(Oc2ccc(CN3CCC4(CC3)OCCc3sccc34)cc2)cc1 [Compound 4] ; measured bioavailability: 54.6%

* * *

protocol.text: in vivo
Parameters: species or system mice
measurement.parameters: mouse, in vivo, po, 50 mg/kg
measured.metric: AUC

Field AUC (entry Cl.FC(F)(F)Oc1ccc(Oc2ccc(CN3CCC4(CC3)OCCc3sccc34)cc2)cc1 ) reads > 1 µg·h/mL

* * *

Catalogue of solubility readings, one per entry.
protocol.text: physchem
Value expressed in µM; do not type the unit.

{"columns": ["given.smiles", "measured.metric", "measure.unit", "reported"],
 "data": [
  ["c1cc2c(s1)CCOC21CCN(Cc2ccc3c(c2)OCCO3)CC1", "solubility", "µM", 266]
]}

Alright, here's another compound for you.
Record summary for CCc1ccc([C@H]2C[C@@H](C(F)(F)F)n3ncc(C(=O)NCc4ccc(OC)cc4)c3N2)cc1 : reported solubility = 5

* * *

protocol.text: in vivo
Set-up: species or system mice
measurement.parameters: mouse, in vivo, po, 50 mg/kg; minimum requirement fulfilled; read-out: AUC after oral administration 50 mg/kg
measured.metric: AUC

For this molecule ( CCc1ccc([C@H]2C[C@@H](C(F)(F)F)n3ncc(C(=O)NCc4ccc5c(c4)OCO5)c3N2)cc1 ), measured AUC is > 1000 ng·h/mL

* * *

Tested on: HepG2 cells
Assay type: cell-based, human
measurement.parameters: 48 h incubation
Marks after values point to notes of the source that are not given here.
Reported HepG2 Tox50 values for a set of compounds

Worked cases, HepG2 Tox50 given:
{"columns": ["compound", "HepG2 Tox50"],
 "data": [
  ["c1cc2c(s1)CCOC21CCN(Cc2ccc3c(c2)OCCO3)CC1 [Compound 2]", "36 µM"],
  ["CCc1ccc([C@H]2C[C@@H](C(F)(F)F)n3ncc(C(=O)NCc4ccc(OC)cc4)c3N2)cc1 [Compound 1]", ">25 ^* µM"],
  ["CCc1ccc([C@H]2C[C@@H](C(F)(F)F)n3ncc(C(=O)NCc4ccc5c(c4)OCO5)c3N2)cc1 [Compound 3]", "> 25 µM"]
]}

Kindly consider the entry below.
Note to self: HepG2 Tox50 of Cl.FC(F)(F)Oc1ccc(Oc2ccc(CN3CCC4(CC3)OCCc3sccc34)cc2)cc1 [Compound 4] with HepG2 cells was 36 µM

Values from paper PMC3629081
